- assayed target: Gamma-aminobutyric acid receptor subunit alpha-1 [28-456]/beta-2 [26-512]/gamma-2 [40-467,A118C] (Homo sapiens, UniProt P14867+P18507+P47870, A118C)
- Construct: 28-456; 26-512; 40-467
- test summary: Radioligand Binding Assay
- run conditions: 25 °C
readout name: Ki (nM)
Please reply with the bare figure in nM and do not write the unit itself.

Which Ki value belongs to CN1CCN(C(=O)Oc2c3[nH]ccnc-3c(=O)n2-c2ccc(Cl)cn2)CC1 ?
393

----------
- assayed target: Gamma-aminobutyric acid receptor subunit alpha-1 [28-456]/beta-2 [26-512]/gamma-2 [40-467,T165C] (Homo sapiens, UniProt P14867+P18507+P47870, T165C)
- Construct: 28-456; 26-512; 40-467
- test summary: Radioligand Binding Assay
- run conditions: 25 °C
readout name: pKi
Note on units: pKi is unitless, being -log10 of a concentration expressed in mol/L.

Which pKi value belongs to CN1CCN(C(=O)Oc2c3[nH]ccnc-3c(=O)n2-c2ccc(Cl)cn2)CC1 ?
7.14
